# Tested on: A498 renal
# Assay Summary: NCI-60 one-dose screen, 48 h (100 = growth as untreated, 0 = no growth, -100 = all killed)
# Stated Conditions: 10 µM unless noted
# Protocol: Growth inhibition of the A498 human tumor cell line is measured as a screen for anti-cancer activity. Cells are grown in 96 well plates and exposed to the test compound for 48 hours. Compounds are tested at a single concentration, which is 10^-5 M for most compounds. The reported endpoint is percent growth (GI% or GIPRCNT), where numbers from 0 - 100% represent growth inhibition, and numbers from -100% - 0 represent cell death. For example, a value of 40 represents 60% growth inhibition. […]
This is part of a sample that, as a whole, favours compounds with a hit. Of some 83,000 tested, about 20% had one in any assay.
Listed below: growth values for each entry.
Answer in %, number only, no unit symbol.

{"Smiles Record": "N#CC1(O)CCCCC1", "Result Unit": "%", "growth": 87.9}
{"Smiles Record": "CC(C)C(C)(C)C(=O)C(C)(C)C(C)(C)C", "Result Unit": "%", "growth": 83.9}

--- query ---
Reading of growth for "S=c1nc2[nH]c3ccccc3c2n[nH]1" with A498 renal: 95.7
